The measured values listed here are drawn from PubChem BioAssay (NCI).

As shown below, each of these molecules has a reported TGI value.
System: HCT-116 colon
protocol: NCI tumour cell line growth inhibition, 48 h

molecule	TGI
COC1CC(C)(N)C(O)C(C)O1 (stereo not drawn)	> 100 µM
COc1ccc(NC(=O)C2C(=O)N(c3ccc(OC)cc3)C(=O)/C2=N\N)cc1 (stereo not drawn)	> 100 µM
COc1cccc2c(Nc3ccc(S(=O)(=O)Nc4ncccn4)cc3)c3ccc([N+](=O)[O-])cc3nc12	> 100 µM

* * *

Test system: SF-295 CNS
protocol: NCI tumour cell line growth inhibition, 48 h; in the data active = GI50 below about 0.43 µM; inactive = the rest
Outcome codes: active, inactive

compound	discrete_label
COc1cccc(/C=N/Nc2ncnc3c2cnn3-c2cccc(OC)c2)c1	inactive
Nc1nc(N)c2cc(CNc3ccc(C(=O)NC(CC(=O)O)C(=O)O)cc3)ccc2n1 (stereo not given)	active
CC(=O)[CH-]C(C)=O.CC(=O)[CH-]C(C)=O.[CH2-]CCCCCCC.[CH2-]CCCCCCC.[Sn+4]	inactive
COC(=O)C1=C(O)[C@H](C(=O)OC)C2(O)[C@@H](C(=O)OC)[C@H]1C[C@@H](c1ccc(OC(=O)n3ccnc3)cc1)[C@@H]2C(=O)OC	inactive
CN([O-])c1nc(N(C)[O-])nc(N2CCOCC2)n1.CN([O-])c1nc(N(C)[OH2+])nc(N2CCOCC2)n1.[Fe+3]	inactive

* * *

As shown below, each of these compounds has a reported GI50 value.
System: SW-620 colon
protocol: NCI tumour cell line growth inhibition, 48 h

compound	GI50
C1CN1c1nc(N2CC2)nc(N2CC2)n1	7840 nM
COc1cccc(/C=N/Nc2ncnc3c2cnn3-c2cccc(OC)c2)c1	> 25000 nM
Cc1c(C(N)=O)sc2c1c(=O)n(Cc1ccccc1)c1nnc(SCC(=O)Nc3ccc(Cl)cc3)n21	> 100000 nM
CCN(CC)CCOc1ccc(/C=C2\CC3C4CC=C5C[C@@H](N6CCCC6)CC[C@]5(C)C4CC[C@]3(C)[C@H]2OC(C)=O)cc1OC (some centres undefined)	555 nM
O[N+]1=CC=CCC1=S.On1ccccc1=S.[Zn]	899 nM
COc1ccc(/C=N/C2=C(C#N)C(c3ccccc3)c3c(ccc4ccccc34)O2)cc1 (centres undefined)	732 nM
CCN(CC)c1ccc(/C=C2\SC(=O)C(Nc3nnc(-c4cccnc4SCc4ccccc4)o3)C2=O)cc1 (centres undefined)	3940 nM
O=C(Nc1cccc(-c2cccc(F)c2)c1)C1CCN(Cc2cccc3cccnc23)CC1	1710 nM
CCOC(=O)C1=C(C)N(c2ccc(OC)cc2)C2(O)C=CC(=O)C3C(=O)N(c4ccccc4)C(=O)C132 (centres undefined)	1880 nM

* * *

As shown below, each of these molecules has a reported TGI value.
Test system: OVCAR-4 ovarian
protocol: NCI tumour cell line growth inhibition, 48 h
assay_metric: TGI

molecule	target_desc	endpoint_result
O=C1CC(c2ccccc2Cl)Oc2ccccc21 (stereo unspecified)	OVCAR-4 ovarian	> 100 µM
O=C(O)c1ccccc1CC1Cc2ccccc2C1	OVCAR-4 ovarian	> 100 µM
Cc1noc(C)c1C1=CCCCc2ccccc21	OVCAR-4 ovarian	> 100 µM
Brc1ccc(N=NN2CCCC2)cc1	OVCAR-4 ovarian	> 100 µM
O=C(N=C1N(c2ccccc2)C(=O)C(=O)N1c1ccccc1)c1ccccc1	OVCAR-4 ovarian	13.3 µM
CC(C)=CC1CCc2ccccc2N1S(=O)(=O)c1ccc(C)cc1 (stereo unspecified)	OVCAR-4 ovarian	> 31.6 µM

* * *

Tested on: OVCAR-4 ovarian
protocol: NCI tumour cell line growth inhibition, 48 h
Classify by measured TGI: fulfilled if it is equal to or exceeds 30 µM, not fulfilled if it is smaller.

compound	discrete_label
NC(N)=C1CN(C2CCCCC2)C(=O)NC1=O	fulfilled
O[N+]1=CC=CCC1=S.On1ccccc1=S.[Zn]	not fulfilled
COc1ccc(C(=O)/C=C2\C(=O)Nc3ccc(Br)cc32)cc1	fulfilled
C[C@]12CC[C@@H]3c4cc(Br)c(O)c(Br)c4CC[C@H]3[C@@H]1CCC2=O	fulfilled
CCCCCCC[C@@H](O)CC(=O)NC(CC(C)C)C(=O)NC(CCC(=O)O)C(=O)NC1C(=O)NC(C(C)C)C(=O)NC(CC(C)C)C(=O)NC(CO)C(=O)NC(CC(C)C)C(=O)NC(CO)C(=O)NC(C(C)CC)C(=O)OC1C (some centres undefined)	fulfilled
CNc1nc(SC)nc2c1c(N)nn2C	fulfilled
COc1cccc(NC(=O)CC(=O)N2NC(c3ccccc3)C(N=Nc3cccc(C(=O)O)c3)C2=O)c1 (centres undefined)	fulfilled
COc1ccc2nc3cc(Cl)ccc3c(NCCCCCN3CCCCC3)c2c1	not fulfilled
COC(=O)C1=C(O)[C@H](C(=O)OC)C2(O)[C@@H](C(=O)OC)[C@H]1C[C@@H](c1ccc(OC(=O)n3ccnc3)cc1)[C@@H]2C(=O)OC	fulfilled
CC1=C(C(=O)CC(=O)C(=O)Nc2ccccc2C(F)(F)F)Sc2ccccc2N1	fulfilled
O=C(O)C(Cc1c[nH]c2ccccc12)C(=O)NO (centres undefined)	fulfilled
CC1(C)C(OC(=O)c2ccccc2)C[C@]23CCC[C@](C)(C[C@@H](O)C12)C3 (some centres undefined)	fulfilled
CC(=O)Oc1ccc(O)c2c1CCCC2	fulfilled
N#CC1(C#N)C2=C(CCCC2)NC(c2ccc(Br)cc2)C1(C#N)C#N (centres undefined)	not fulfilled
O=C(CC1(O)C(=O)Nc2c(Cl)cc(Cl)cc21)c1ccco1 (centres undefined)	fulfilled
COc1cccc([C@@]2(O)c3c(ccc(O)c3OC)[C@H]2OC)c1OC	fulfilled
C[C@]12CCC3c4ccc(O)cc4CCC3C1CC[C@@]2(O)C#Cc1ccc(C#C/C=C\C#Cc2ccccc2N)cc1 (some centres undefined)	fulfilled
FC(F)(F)c1cccc(Nc2nc3ccccc3nc2Nc2cccc(C(F)(F)F)c2)c1	not fulfilled
O=C(/C(=C\c1ccccc1)CN1CCOCC1)c1ccc(Br)cc1	not fulfilled
Cc1nn2c(C(=O)N/N=C/c3ccccc3O)c(C)nc2s1	fulfilled
COC(=O)C1=C2SCc3ccc(cc3)CSC3=C(C(=O)OC)SC(=C(S2)S1)S3	fulfilled
CCOC(=O)c1cc(NC(=O)N(CCC#N)CCN(C(=O)N[C@@H](Cc2ccccc2)C(=O)N[C@@H](CC(C)C)C(=O)NC)c2ccccc2)ccc1OC	fulfilled
C[C@@H](O)[C@H]1C(=O)N2C(C(=O)O)=C(SCCN=CN)C[C@H]12	not fulfilled
CC(=O)c1c(P(=O)(OC(C)C)OC(C)C)nn(-c2ccc([N+](=O)[O-])cc2)c1C	fulfilled
COc1ccc(CC#N)c(OCc2ccccc2)c1	fulfilled
Nc1nc2c(nc(N)n2Cc2ccccc2)c(=O)[nH]1	fulfilled
Cc1cccc(C)c1NC(=O)/C(Cc1nc2ccc([N+](=O)[O-])cc2[nH]c1=O)=N\NC(N)=O	fulfilled
CC(=O)N=C1C=C(NC(C)=O)C(=O)c2ccccc21	not fulfilled
c1cc(-c2ccsc2-c2ccsc2)cs1	fulfilled
FC(F)(F)C1(Cl)C(Cl)(c2ccccc2)C1(Cl)c1ccccc1 (centres undefined)	not fulfilled
Cc1cccc(C)c1NC(=O)C(=O)C(C#N)c1ccccc1Cl (centres undefined)	fulfilled
NC1CSc2ccccc2NC1=O (centres undefined)	fulfilled

* * *

As shown below, each of these compounds has a reported TGI value.
Test system: LOX IMVI melanoma
protocol: NCI tumour cell line growth inhibition, 48 h

compound	TGI
CCC12CCCN(Cc3ccccc3)C1c1c(n(C)c3ccccc13)[C@H](C(=O)OC)C2 (stereo not given in full)	> 239 µM
Cc1c(C(N)=O)sc2c1c(=O)n(Cc1ccccc1)c1nnc(SCC(=O)Nc3ccc(Cl)cc3)n21	> 100 µM
NC(=O)N/N=C\c1ccccc1OCc1cccc(COc2ccccc2/C=N\NC(N)=O)n1	> 100 µM
COc1ccc(C2C=C(c3ccccc3)Nc3nnnn32)cc1 (stereo not given)	> 100 µM
O=C(O)c1ccccc1CC1Cc2ccccc2C1	> 100 µM
COC(=O)c1cc2c3c(c1)Oc1cc(C(=O)OC)cc4c1C3c1c(cc(C(=O)OC)cc1O4)O2	> 46.1 µM
COc1ccc(S(=O)(=O)Nc2cc(/C=C\c3cc(OC)c(OC)c(OC)c3)cc(OC)c2OC)cc1	> 100 µM
CCOC(=O)/C=C/C1=C(c2csc3ccccc23)c2ccccc2CC1	> 100 µM
Cc1cc(O)c2c3c1C(=O)Oc1c(CO)c(O)c(C(=O)O)c(c1O3)C=NN=Cc1c3c(c(CO)c(O)c1C(=O)O)OC(=O)c1c(C)cc(O)c(c1O3)C=NN=C2	> 100 µM
O=c1[nH]nc(Cc2ccccc2)n1/N=C\CC/C=N\n1c(Cc2ccccc2)n[nH]c1=O	> 100 µM

* * *

System: UACC-257 melanoma
protocol: NCI tumour cell line growth inhibition, 48 h
As shown below, each of these compounds has a reported TGI value.

compound	target_desc	TGI
O=c1c2cccnc2[nH]c2ccc3[nH]ncc3c12	UACC-257 melanoma	> 10 µM
O=C1C=CC(=O)c2ccc(=O)ccc21	UACC-257 melanoma	30.4 µM
CCOc1cc2c[n+](C)c3c4cc(OC)c(OC)cc4ccc3c2cc1OC	UACC-257 melanoma	> 100 µM
CCOC(=O)C1C(=O)C(C(=O)OCC)C(c2ccccc2)N(C)C1c1ccccc1 (configuration not stated)	UACC-257 melanoma	> 100 µM
CC(C)=CC1CCc2ccccc2N1S(=O)(=O)c1ccc(C)cc1 (configuration not stated)	UACC-257 melanoma	23.6 µM
COc1ccc(CC#N)c(OCc2ccccc2)c1	UACC-257 melanoma	> 100 µM
CC(C)C(=O)N1C(=O)O[C@@H](c2ccccc2)[C@H]1C	UACC-257 melanoma	> 100 µM
COc1ccc(C=Nc2c(O)ccc3ccccc23)cc1OC	UACC-257 melanoma	> 100 µM
O=C(CON1C(=O)c2ccccc2C1=O)c1ccccc1	UACC-257 melanoma	> 100 µM
C=C(C)C(=O)OC1CC2(C)OC(=CC2=O)C(C)CC2OC(=O)C(=C)C12 (configuration not stated)	UACC-257 melanoma	35.2 µM
CC(=O)SSC1(Cl)C(C)(C)C(Cl)(SSC(C)=O)C1(C)C (configuration not stated)	UACC-257 melanoma	> 100 µM
Cc1noc(C)c1C1=CCCCc2ccccc21	UACC-257 melanoma	> 100 µM
Cc1cccc(C)c1NC(=O)C(=O)C(C#N)c1ccccc1Cl (configuration not stated)	UACC-257 melanoma	> 100 µM
CCC12CCCN(Cc3ccccc3)C1c1c(n(C)c3ccccc13)[C@H](C(=O)OC)C2 (some centres not stated)	UACC-257 melanoma	> 239 µM
CN(C)CCNc1ccc2c(=O)n(CCN(C)C)c(=O)n3c4ccccc4c(=O)c1c23	UACC-257 melanoma	1.62 µM
CC(C)c1cc(C(F)(F)F)nc(NNc2nc(C(C)C)cc(C(F)(F)F)n2)n1	UACC-257 melanoma	> 100 µM
O=c1[nH]c(=S)[nH]c2c1C(c1ccc(Cl)cc1)c1c([nH]c(=S)[nH]c1=O)O2	UACC-257 melanoma	> 100 µM
